# targetOrSystem: T1, cynomolgus monkey serum albumin (cynoSA), full length (cynomolgus monkey, UniProt A2V9Z4 25-608)
# T1 construct: mature; Immobilized on CM5 chip (SPR); the cynoSA experiment used a different Biacore chip; also called CySA
# T1 sequence (A2V9Z4 25-608): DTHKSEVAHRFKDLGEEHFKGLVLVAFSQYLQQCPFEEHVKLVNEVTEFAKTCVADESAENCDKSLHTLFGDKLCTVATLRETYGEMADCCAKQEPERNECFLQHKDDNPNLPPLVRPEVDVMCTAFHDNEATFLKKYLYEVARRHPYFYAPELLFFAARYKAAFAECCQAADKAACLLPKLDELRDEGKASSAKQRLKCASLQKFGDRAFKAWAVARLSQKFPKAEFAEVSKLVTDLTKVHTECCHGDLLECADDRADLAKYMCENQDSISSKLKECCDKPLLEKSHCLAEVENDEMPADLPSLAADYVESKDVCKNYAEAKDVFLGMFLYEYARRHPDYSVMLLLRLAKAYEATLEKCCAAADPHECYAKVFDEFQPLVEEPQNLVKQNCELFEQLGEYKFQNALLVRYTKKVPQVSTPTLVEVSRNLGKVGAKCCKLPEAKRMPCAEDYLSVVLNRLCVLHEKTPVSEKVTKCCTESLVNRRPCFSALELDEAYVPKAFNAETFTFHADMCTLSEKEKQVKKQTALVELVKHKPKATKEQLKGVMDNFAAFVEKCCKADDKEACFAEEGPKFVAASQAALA
# protocolNotes: SPR kinetics, immobilized albumin, 1:1 fit, 37 C
Overview of reported Kd across a group of binders:
Please state the figure in nM; there is no need to write the unit.

// known answers, use as guide
ADX_7016_A01 (parent PKE2 Adnectin) (designed binder, N-terminal Met may be cleaved; also called 2629_E06; ADX_2629_E06) MGVSDVPRDLEVVAATPTSLLISWDAPAVTVRYYRITYGREVQKYSDLGPLYIYQEFTVPGSKSTATISGLKPGVDYTITVYAVTGSGESPASSKPISINYRTEIDKPSQHHHHHH = 4.4
ADX_7016_C03 (Y44Q) (designed binder, Full His6-tagged entry; also called 6727_B03) MGVSDVPRDLEVVAATPTSLLISWDAPAVTVRYYRITYGREVQKYSDLGPLYIQQEFTVPGSKSTATISGLKPGVDYTITVYAVTGSGESPASSKPISINYRTEIDKPSQHHHHHH = 1080
ADX_7016_E02 (L38T) (designed binder, Full His6-tagged entry; also called 6727_E08) MGVSDVPRDLEVVAATPTSLLISWDAPAVTVRYYRITYGREVQKYSDTGPLYIYQEFTVPGSKSTATISGLKPGVDYTITVYAVTGSGESPASSKPISINYRTEIDKPSQHHHHHH = 1430

I am curious: what Kd value has been reported for ADX_7016_G01 (Y44S) (designed binder, Full His6-tagged entry; also called 6727_G02) MGVSDVPRDLEVVAATPTSLLISWDAPAVTVRYYRITYGREVQKYSDLGPLYISQEFTVPGSKSTATISGLKPGVDYTITVYAVTGSGESPASSKPISINYRTEIDKPSQHHHHHH ?
68.1

Sourced from patent US20180258158A1
